Experiment: PK study in male Sprague-Dawley rats dosed once per day for five days, PO 1 mg/kg, 0.5% HPMC (Example 6)
Format: in vivo
Settings: male, Sprague-Dawley, rat, in vivo, po, 1 mg/kg, male Sprague-Dawley rats, single (first) PO 1 mg/kg dose, 0.5% HPMC suspension; individual animals
quantity name: Tmax (h)

molecule	readout value
Cc1cc(Nc2cc(N)ncn2)c(=O)n2c1C(=O)NC21CCC2(CC2)CC1 [4ET-03-053]	2

* * *

Assay: Plasma and brain concentrations, brain to plasma ratio in male CD1 mice (Example 3)
Format: in vivo
Details: male, CD1, mouse, plasma, 2 h post dosing, individual animals (n = 3), read-out: Plasma Conc.

compound	concentration at 2 h, µg/mL
Cc1cc(Nc2cc(N)ncn2)c(=O)n2c1C(=O)NC21CCC2(CC2)CC1 [4ET-03-053]	0.488
